Molecular target: human PI3K isoform gamma (p110 gamma) (Homo sapiens)
Sequence (P48736 whole entry, canonical isoform): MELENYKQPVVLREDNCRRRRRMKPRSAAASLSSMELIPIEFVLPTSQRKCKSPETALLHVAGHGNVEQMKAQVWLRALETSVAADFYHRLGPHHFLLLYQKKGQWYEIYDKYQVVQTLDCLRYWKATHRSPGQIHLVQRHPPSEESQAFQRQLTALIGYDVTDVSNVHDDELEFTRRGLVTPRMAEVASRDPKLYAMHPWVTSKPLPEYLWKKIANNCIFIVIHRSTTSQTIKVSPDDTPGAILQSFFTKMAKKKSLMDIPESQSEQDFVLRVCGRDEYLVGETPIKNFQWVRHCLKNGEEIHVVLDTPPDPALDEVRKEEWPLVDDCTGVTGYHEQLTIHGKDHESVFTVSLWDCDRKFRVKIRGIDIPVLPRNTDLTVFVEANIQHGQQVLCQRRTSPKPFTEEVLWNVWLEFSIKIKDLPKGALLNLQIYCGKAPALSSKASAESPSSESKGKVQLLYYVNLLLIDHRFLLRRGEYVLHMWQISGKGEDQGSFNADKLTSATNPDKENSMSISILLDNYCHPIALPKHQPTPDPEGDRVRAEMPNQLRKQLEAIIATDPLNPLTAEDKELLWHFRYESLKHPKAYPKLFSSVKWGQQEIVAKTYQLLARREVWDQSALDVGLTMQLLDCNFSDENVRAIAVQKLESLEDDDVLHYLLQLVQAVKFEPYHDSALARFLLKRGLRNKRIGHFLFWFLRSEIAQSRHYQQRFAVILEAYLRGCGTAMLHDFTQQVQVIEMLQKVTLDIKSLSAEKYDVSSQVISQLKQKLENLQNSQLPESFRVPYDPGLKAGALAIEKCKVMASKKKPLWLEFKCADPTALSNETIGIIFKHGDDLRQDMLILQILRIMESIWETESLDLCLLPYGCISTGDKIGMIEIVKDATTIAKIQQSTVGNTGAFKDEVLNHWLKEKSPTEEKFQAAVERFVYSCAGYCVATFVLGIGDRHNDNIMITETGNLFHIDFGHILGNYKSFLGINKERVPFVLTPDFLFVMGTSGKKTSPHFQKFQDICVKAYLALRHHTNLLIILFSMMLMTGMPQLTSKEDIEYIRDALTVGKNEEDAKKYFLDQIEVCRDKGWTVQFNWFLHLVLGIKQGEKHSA
Assay: p110 isoform selectivity scintillation proximity assay (SPA), gamma isoform
Assay type: biochemical
Conditions: fold potency over gamma relative to alpha, calculated from IC50 values (SPA)
Method: Binding of Formula Ia and Ib compounds from Tables 1a and 1b to purified preparations of p110 isoforms alpha, beta, delta, and gamma was measured by a Scintillation Proximity Assay (SPA) to determine binding activity (IC50 μMol) and selectivity of binding of beta, delta, and gamma isoforms relative to alpha (Example 365). These values are expressed in Table 2. […]
QUANTITY_MEASURED: alpha/gamma

Example compounds with recorded alpha/gamma:
Item under review: C[C@H](O)CNC(=O)c1cccc(-c2cc3nc(-c4cccc5[nH]ncc45)nc(N4CCOCC4)c3s2)c1 . Reported alpha/gamma? >10

What about c1ccc(-c2cc3nc(-c4cccc5[nH]ncc45)nc(N4CCOCC4)c3o2)cc1 ? <10

What about CCNC(=O)c1cc2nc(-c3cccc4[nH]ncc34)nc(N3CCOCC3)c2s1 ? <10

What about O=C(NCc1cc2nc(-c3cccc4[nH]ncc34)nc(N3CCOCC3)c2s1)N1CCOCC1 ? >10

What about OCCNc1cc2nc(-c3cccc4[nH]ncc34)nc(N3CCOCC3)c2s1 ? >10

What about CNC(=O)c1cccc(-c2cc3nc(-c4cccc5[nH]ncc45)nc(N4CCOCC4)c3s2)c1 ? >10

***
Item under review: Cc1c(-c2cccc(S(C)(=O)=O)c2)sc2c(N3CCOCC3)nc(-c3cccc4[nH]ncc34)nc12 . Reported alpha/gamma? >10

What about O=S(=O)(NCCN1CCCCC1)c1cc2nc(-c3cccc4[nH]ncc34)nc(N3CCOCC3)c2s1 ? >10
